Assay: Binding affinity to trypsin at 25 degC by isothermal calorimetry
Non-standard residues stand in square brackets, D forms with d. Residues, ends and D or L forms follow the SMILES beside them. *: point of attachment. Bip = N[C@@H](Cc1ccc(-c2ccccc2)cc1)C(=O)O; Phe(4-NH2) = Nc1ccc(C[C@H](N)C(=O)O)cc1; hArg = N=C(N)NCCCC[C@H](N)C(=O)O; Orn = NCCC[C@H](N)C(=O)O; NHBn = c1ccc(CN*)cc1
Rule for this label: satisfied means Kd is less than 10 µM; not satisfied means Kd is at least 10 µM.

Prompt line: Threshold test, Kd < 10 µM: N=C(N)NCCC[C@H](N)C(=O)N[C@@H](Cc1ccc(-c2ccccc2)cc1)C(=O)N[C@@H](CCCN)C(=O)NCc1ccccc1 (H-Arg-[Bip]-[Orn]-NHBn)
Response line: not satisfied

Prompt line: Is Kd of N=C(N)NCCC[C@H](N)C(=O)N[C@@H](Cc1ccc(N)cc1)C(=O)N[C@@H](Cc1ccc(-c2ccccc2)cc1)C(=O)NCc1ccccc1 (H-Arg-[Phe(4-NH2)]-[Bip]-NHBn) strictly below 10 µM?
Response line: satisfied

Prompt line: Confirm or reject: Kd of N=C(N)NCCC[C@H](NC(=O)[C@H](Cc1ccc(-c2ccccc2)cc1)NC(=O)[C@@H](N)CCCCN)C(=O)NCc1ccccc1 (H-Lys-[Bip]-Arg-NHBn) lies strictly below 10 µM
Response line: not satisfied

Prompt line: Hello, is Kd of the following molecule strictly smaller than 10 µM? N=C(N)NCCC[C@H](NC(=O)[C@H](Cc1ccc(-c2ccccc2)cc1)NC(=O)[C@@H](N)CCCNC(=N)N)C(=O)NCc1ccccc1 (H-Arg-[Bip]-Arg-NHBn)
Response line: not satisfied

Prompt line: Kd strictly < 10 µM for this molecule? N=C(N)NCCC[C@H](N)C(=O)N[C@@H](Cc1ccc(N)cc1)C(=O)N[C@@H](Cc1c[nH]c2ccccc12)C(=O)NCc1ccccc1 (H-Arg-[Phe(4-NH2)]-Trp-NHBn)
Response line: not satisfied

Prompt line: Lab note: confirm whether the reported Kd for this molecule is below 10 µM, equality not counting. molecule: N=C(N)NCCC[C@H](N)C(=O)N[C@@H](Cc1ccc(-c2ccccc2)cc1)C(=O)N[C@@H](CCCCN)C(=O)NCc1ccccc1 (H-Arg-[Bip]-Lys-NHBn)
Response line: not satisfied

Prompt line: Consider N=C(N)NCCCC[C@H](NC(=O)[C@H](Cc1ccc(-c2ccccc2)cc1)NC(=O)[C@@H](N)CCCNC(=N)N)C(=O)NCc1ccccc1 (H-Arg-[Bip]-[hArg]-NHBn) . Does its Kd lie strictly below 10 µM?
Response line: not satisfied

Prompt line: Is Kd of N=C(N)NCCC[C@H](NC(=O)[C@H](Cc1ccc(-c2ccccc2)cc1)NC(=O)[C@@H](N)CCCN)C(=O)NCc1ccccc1 (H-[Orn]-[Bip]-Arg-NHBn) strictly below 10 µM?
Response line: not satisfied

Prompt line: Does the reported Kd of N=C(N)NCCC[C@H](N)C(=O)N[C@@H](Cc1ccc(-c2ccccc2)cc1)C(=O)N[C@@H](Cc1ccc(NC(=N)N)cc1)C(=O)NCc1ccccc1 stay below 10 µM?
Response line: satisfied

Prompt line: Does NCCCC[C@H](NC(=O)[C@H](Cc1ccc(-c2ccccc2)cc1)NC(=O)[C@@H](N)CCCCN)C(=O)NCc1ccccc1 (H-Lys-[Bip]-Lys-NHBn) have Kd strictly under 10 µM?
Response line: not satisfied
